- System Name: Cathepsin K (Homo sapiens, UniProt P43235)
- Sequence (P43235 whole entry): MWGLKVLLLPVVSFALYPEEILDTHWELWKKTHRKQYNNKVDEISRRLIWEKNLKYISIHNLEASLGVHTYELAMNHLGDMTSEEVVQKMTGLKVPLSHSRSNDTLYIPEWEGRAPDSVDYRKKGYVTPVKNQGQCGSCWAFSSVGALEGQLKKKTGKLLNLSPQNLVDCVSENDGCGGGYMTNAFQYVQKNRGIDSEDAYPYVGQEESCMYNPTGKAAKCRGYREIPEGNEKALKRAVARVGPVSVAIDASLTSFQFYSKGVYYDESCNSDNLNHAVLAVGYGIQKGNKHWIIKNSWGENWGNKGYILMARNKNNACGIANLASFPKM
- Measurement Protocol: In vitro inhibition of human Cathepsin K.
- Experimental Parameters: read-out: Ki app
pKi: −log10 of the molar value.
Measurement Kind: pKi

// solved cases for pKi follow
{"Compound": "CC(=O)N1CCC(NC(=O)[C@H](CC(C)C)NC(=O)OCc2ccccc2)C(=O)C1 (some centres undefined)", "Measurement Kind": "pKi", "Quantitative Readout": 6.64}
{"Compound": "CC(=O)N1CC(=O)C(NC(=O)[C@H](CC(C)C)NC(=O)OCc2ccccc2)C1 (some centres undefined)", "Measurement Kind": "pKi", "Quantitative Readout": 6.60}
{"Compound": "CC(C)C[C@H](NC(=O)OCc1ccccc1)C(=O)NC1CCN(C(=O)[C@H](CC(C)C)N(C)C(=O)OCc2ccccc2)CC1=O (some centres undefined)", "Measurement Kind": "pKi", "Quantitative Readout": 8.72}

P. CN[C@@H](CC(C)C)C(=O)N1CC(=O)[C@@H](NC(=O)[C@H](CC(C)C)NC(=O)OCc2ccccc2)C1
Q. CC(C)C[C@H](NC(=O)OCc1ccccc1)C(=O)NC1CCOCC1=O (some centres undefined)
Kindly compare P with Q and tell me which has the lower pKi figure. Use the label to indicate which entry you chose.
Q
(Q: 6.82, P: 7.11)

###

- System Name: Cathepsin K (Homo sapiens, UniProt P43235)
- Measurement Protocol: In vitro inhibition of human Cathepsin K.
- Experimental Parameters: read-out: Ki app
Measurement Kind: Ki (nM)

P. CC(C)C[C@H](NC(=O)OCc1ccccc1)C(=O)NC1CN(C(=O)[C@H](CC(C)C)N(C)C(=O)OCc2ccccc2)CC1=O (stereo partly drawn)
Q. CC(C)C[C@@H](CN1CC(=O)C(NC(=O)[C@H](CC(C)C)NC(=O)c2ccc3cccnc3c2)C1)NC(=O)OCc1ccccc1 (stereo partly drawn)
R. CC(C)C[C@@H](C(=O)NC1CN(C(=O)[C@H](CC(C)C)N(C)C(=O)OCc2ccccc2)CC1=O)N(C)C(=O)OCc1ccccc1 (stereo partly drawn)
Method: rank(items above, key=Ki, ascending=True) # answer = labels listed in requested order
P, Q, R
(P: 0.6 nM, Q: 1.6 nM, R: 180 nM)

###

For Procathepsin L (Homo sapiens), measured pKi is reported for the entries below.
pKi: −log10 of the molar value.
Measurement Kind: pKi

// solved cases for pKi follow
{"Compound": "CC(=O)N1CC(=O)C(NC(=O)[C@H](CC(C)C)NC(=O)OCc2ccccc2)C1 (stereo partly specified)", "System Name": "Procathepsin L (Homo sapiens)", "pKi": 6.24}
{"Compound": "CC(C)C[C@H](NC(=O)c1ccc2ccccc2n1)C(=O)NC1COCC1=O (stereo partly specified)", "System Name": "Procathepsin L (Homo sapiens)", "pKi": 6.60}

1. CN[C@@H](CC(C)C)C(=O)N1CC(=O)[C@@H](NC(=O)[C@H](CC(C)C)NC(=O)OCc2ccccc2)C1
2. CC(C)C[C@H](NC(=O)OCc1ccccc1)C(=O)NC1COCC1=O (stereo partly specified)
Thinking about recorded pKi values, which is higher, 1 or 2 ? Use the label to indicate which entry you chose.
1
(1: 6.40, 2: 5.59)
